Below, each of the binders is paired with its reported apparent Kd (screen) value.
Biological target: T1, TNFR1 (Homo sapiens, UniProt P19438)
T1 chain: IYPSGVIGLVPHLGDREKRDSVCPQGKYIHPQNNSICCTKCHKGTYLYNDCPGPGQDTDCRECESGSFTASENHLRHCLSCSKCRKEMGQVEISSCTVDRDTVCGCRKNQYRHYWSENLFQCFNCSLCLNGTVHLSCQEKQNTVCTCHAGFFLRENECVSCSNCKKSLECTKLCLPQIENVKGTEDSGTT
Test: yeast display SC50

[
  {
    "Binder": "K85A (designed binder) SMEEEVEKAAKEYEKKKKEAIEKHLEKLKAKDKEAAERFLKELEEAAKEYAKDEAKTMSEEEAKRRAKKYKEKVLLSELSEEEQAEIKEAEEKLVRTILKYVEEAAK",
    "apparent Kd (screen) [nM]": 0.539
  },
  {
    "Binder": "A10N (designed binder) SMEEEVEKANKEYEKKKKEAIEKHLEKLKAKDKEAAERFLKELEEAAKEYAKDEAKTMSEEEAKRRAKKYKEKVLLSELSEEEQKEIKEAEEKLVRTILKYVEEAAK",
    "apparent Kd (screen) [nM]": 2.48
  },
  {
    "Binder": "K56I (designed binder) SMEEEVEKAAKEYEKKKKEAIEKHLEKLKAKDKEAAERFLKELEEAAKEYAKDEAITMSEEEAKRRAKKYKEKVLLSELSEEEQKEIKEAEEKLVRTILKYVEEAAK",
    "apparent Kd (screen) [nM]": 2.73
  },
  {
    "Binder": "I98H (designed binder) SMEEEVEKAAKEYEKKKKEAIEKHLEKLKAKDKEAAERFLKELEEAAKEYAKDEAKTMSEEEAKRRAKKYKEKVLLSELSEEEQKEIKEAEEKLVRTHLKYVEEAAK",
    "apparent Kd (screen) [nM]": 5.84
  }
]
